Source listed as patent US20080085893A1.

STUDY TARGET: human MMP-1 (amino acids 100-262) (Homo sapiens, UniProt P03956)
Construct: human MMP-1 (amino acids 100-262)
Sequence (P03956 100-262): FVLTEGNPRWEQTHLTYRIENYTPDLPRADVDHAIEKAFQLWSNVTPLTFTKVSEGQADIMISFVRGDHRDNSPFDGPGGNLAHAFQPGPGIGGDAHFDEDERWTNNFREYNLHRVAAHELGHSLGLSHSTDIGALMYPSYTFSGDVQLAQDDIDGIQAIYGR
ASSAY INFO: MMP dose response assay for determining IC50, MMP-1
EXPERIMENTAL PARAMETERS: recombinant catalytic domain, fluorescent-quench substrate 100 nM
ENDPOINT LABEL: IC50

Use the examples below as a reference point.
CHEMICAL SMILES	STUDY TARGET	ENDPOINT LABEL	OBS VALUE
C[C@@H]1CN([C@@H](CN(c2ccc(Oc3ccc(C(F)(F)F)cc3)cc2)S(C)(=O)=O)C(=O)NO)C[C@H](C)O1	human MMP-1 (amino acids 100-262) (Homo sapiens, UniProt P03956)	IC50	8.04 µM
CS(=O)(=O)N(C[C@@H](C(=O)NO)N1CCc2ccccc2C1)c1ccc(Oc2ccc(C(F)(F)F)cc2)cc1	human MMP-1 (amino acids 100-262) (Homo sapiens, UniProt P03956)	IC50	> 10 µM

Okay, now this compound:
stdin: Returns the measured IC50 for the input compound. Input: `Cc1ccc(Oc2ccc(N(C[C@H](Nc3ccc(F)c(F)c3)C(=O)NO)S(C)(=O)=O)cc2)cc1`
stdout: > 10 µM
